Assignment: determine reported TGI for the given molecules.
- Test system: SF-539 CNS
- experimental.details: NCI tumour cell line growth inhibition, 48 h

// known answers, use as guide
// TGI value for CC(C)(C)c1ccc2c(c1)C(O)(c1ccccc1)c1cc(C(C)(C)C)ccc1C2(O)C(F)(F)F (configuration not stated) : 3.41 µM

The reported TGI of the molecule COc1ccc2nc3c([N+](=O)[O-])ccc4c3c(c2c1)N(CCCN(C)C)C(=S)N4CCCN(C)C was 22 µM

Short answer for NCCCCCCn1c2c(c3ccccc3c1=O)C(=O)c1ccccc1-2 : TGI was 3.59 µM

I'm hoping you can list TGI for every molecule here, please.
1. O=C1c2ccccc2C2=Cc3ccccc3C(O)N12 (configuration not stated)
2. N#Cc1c(N)nc(NCc2ccccc2)c(C#N)c1-c1ccc(Cl)cc1
3. COC1=CC(=C(C#N)C(=Nc2ccccc2)SC)C=C(OC)C1=O
4. O=c1c2c([nH]c3cc4c(cc13)OCO4)-c1ccccc1C2
5. S=c1[nH]n2c(Cc3ccccc3)nnc2s1
6. N#Cc1cccc(N2C(=O)c3ccc(C(=O)c4ccc5c(c4)C(=O)N(c4cccc(C#N)c4)C5=O)cc3C2=O)c1

**A:**
["> 100 µM", "68.1 µM", "> 100 µM", "34.7 µM", "> 100 µM", "> 100 µM"]

Provide reported TGI for each item, in the same order as listed.
1. COc1ccc2cc(C(=O)Nc3ccc(O)c(C(=O)O)c3)ccc2c1OC
2. CCCCN(C(=O)c1ccccc1)C1CCC(=O)c2[nH]c3ccccc3c21 (configuration not stated)
3. C=C(Nc1ccc(OC)cc1OC)C(=O)Cc1cccc[n+]1[O-]
4. CCOC(=O)C1N(S(=O)(=O)c2ccc(C)cc2)CCC12c1ccccc1NC2c1ccc(OC)c(OC)c1 (configuration not stated)
5. CCCCCCCCCCCC(=O)c1c(O)cc(C)oc1=O

**A:**
["> 100 µM", "> 100 µM", "> 100 µM", "> 100 µM", "93.3 µM"]

Could I get TGI for every one of these entries?
1. CC1=NN(c2cccc(Cl)c2)C2(SCC(=O)N2c2nc3ccccc3s2)/C1=C\c1ccccc1 (configuration not stated)
2. CC1=C(C(=O)Nc2cc(F)c(F)cc2F)C(c2ccc3c(c2)OCO3)C(C(=O)Nc2cc(F)c(F)cc2F)=C(C)N1
3. CN(CC(=O)O)S(=O)(=O)c1ccc(F)cc1
4. CC(=O)N(C)c1ccc2ncccc2c1[N+](=O)[O-]

**A:**
1. > 100 µM
2. 87 µM
3. > 100 µM
4. > 100 µM
